# target-or-system: sEH (Homo sapiens)
# Sequence (P34913 1-555): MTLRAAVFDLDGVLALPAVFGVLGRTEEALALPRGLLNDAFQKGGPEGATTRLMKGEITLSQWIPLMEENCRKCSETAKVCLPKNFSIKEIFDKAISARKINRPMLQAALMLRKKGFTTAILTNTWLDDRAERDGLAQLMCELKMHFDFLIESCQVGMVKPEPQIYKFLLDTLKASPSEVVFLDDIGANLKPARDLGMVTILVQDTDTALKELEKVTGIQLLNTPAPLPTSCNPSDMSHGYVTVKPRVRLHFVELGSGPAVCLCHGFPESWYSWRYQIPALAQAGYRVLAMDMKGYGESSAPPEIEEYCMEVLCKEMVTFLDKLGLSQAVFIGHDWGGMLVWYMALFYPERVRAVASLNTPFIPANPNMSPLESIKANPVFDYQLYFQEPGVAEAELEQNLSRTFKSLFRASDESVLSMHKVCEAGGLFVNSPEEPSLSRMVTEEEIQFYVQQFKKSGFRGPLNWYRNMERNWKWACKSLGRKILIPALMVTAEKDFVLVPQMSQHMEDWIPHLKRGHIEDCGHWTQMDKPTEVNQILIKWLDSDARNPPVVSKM
Parameter class (string): assigned from measured IC50. Ranges: low: < 7 µM; mid: ≥ 7 µM and < 20 µM; high: ≥ 20 µM

Which bin should I file `C[C@@H]1O[C@@H](OC[C@H]2O[C@@H](Oc3c(-c4ccc(O)cc4)oc4cc(O)cc(O)c4c3=O)[C@H](O)[C@@H](O)[C@H]2O)[C@H](O)[C@H](O)[C@H]1O` under?
mid

Likewise for `COC(=O)[C@]1(O)C[C@@H](O)[C@@H](O)[C@H](OC(=O)/C=C/c2ccc(O)c(O)c2)C1` ?
mid

What do you have for O=C(C=Cc1ccc(O)c(O)c1)OC1C(O)CC(O)(C(=O)O)CC1O (stereo not drawn) ?
high

Continue with `O=C(O)/C=C/c1ccc(O)c(O)c1`
high

What do you get for `C[C@@H]1O[C@@H](OC[C@H]2O[C@@H](Oc3c(-c4ccc(O)c(O)c4)oc4cc(O)cc(O)c4c3=O)[C@H](O)[C@@H](O)[C@@H]2O)[C@H](O)[C@H](O)[C@H]1O` ?
low

Follow-up entry: `O=c1ccc2cc(O)c(O)cc2o1`
low

Moving on to `O=C(/C=C/c1ccc(O)c(O)c1)O[C@@H]1C[C@@](O)(C(=O)O)C[C@@H](O)[C@@H]1O`
high

Subsequent entry: COC(=O)C1(O)CC(O)C(OC(=O)C=Cc2ccc(O)c(O)c2)C(O)C1 (stereo not drawn)
mid

----------
# Test system: LPS-induced NO production in macrophage RAW 264.7 cells (iNOS)
# procedure-summary: Inhibition of LPS-induced NO production in RAW 264.7 macrophages (Griess reaction, measure of iNOS activity)
# Assay type: cell-based
# setup-conditions: 50 µM compound; LPS-stimulated RAW264.7 cells
parameter: Inhibition of NO production at 50 µM (%)
Field format: number, assumed %, no unit text.

Inhibition of NO production at 50 µM (%) for CC(=O)O[C@H]1[C@H](OC[C@H]2O[C@@H](Oc3c(-c4ccc(O)c(O)c4)oc4cc(O)cc(O)c4c3=O)[C@H](O)[C@@H](O)[C@@H]2O)O[C@@H](C)[C@H](O)[C@H]1O [Compound 17] ?
29.9

Follow-up item: C[C@@H]1O[C@@H](OC[C@H]2O[C@@H](Oc3c(-c4ccc(O)c(O)c4)oc4cc(O)cc(O)c4c3=O)[C@H](O)[C@@H](O)[C@@H]2O)[C@H](O)[C@H](O)[C@H]1O [Compound 16]
26.2

----------
# target-or-system: sEH (Homo sapiens, UniProt P34913)
parameter: Ki (µM)
State just the number; it will be interpreted in µM.

Consider the compound O=c1ccc2cc(O)c(O)cc2o1 [Compound 19] and give its measured Ki.
10.2

Also COC(=O)C1(O)CC(O)C(OC(=O)C=Cc2ccc(O)c(O)c2)C(O)C1 (stereo not drawn) [Compound 8] ?
13.7

Next compound: O=c1c(O)c(-c2ccc(O)cc2)oc2cc(O)cc(O)c12 [Compound 10, kaempferol]
18.6

----------
# Tested on: LPS-induced NO production in macrophage RAW 264.7 cells (iNOS)
# procedure-summary: Inhibition of LPS-induced NO production in RAW 264.7 macrophages (Griess reaction, measure of iNOS activity)
# Format: cell-based
# setup-conditions: Mus musculus, RAW264.7, LPS-stimulated RAW264.7 cells; means ± SE, n = 3
Provide the reported IC50 of each item.
Your reply should be a number followed by the unit it is expressed in.

Requested field: IC50. Item: `CCCCOC(=O)[C@@]1(O)C[C@@H](O)[C@H](O)[C@H](OC(=O)/C=C/c2ccc(O)c(O)c2)C1`
45.3 µM

Record: C[C@@H]1C[C@H]2[C@@H]3CCC4=CC(=O)C=C[C@]4(C)[C@@]3(F)[C@@H](O)C[C@]2(C)[C@@]1(O)C(=O)CO [Dexamethasone, reference compound]
10.5 µM

What do we get for `Oc1ccc(/C=C/c2cc(O)cc(O)c2)cc1` ?
30.6 µM

And the next one, `O=c1ccc2cc(O)c(O)cc2o1` ?
47.3 µM

Would you mind doing `O=c1cc(-c2ccc(O)cc2)oc2cc(O)cc(O)c12` as well?
12.2 µM

Okay, and `O=c1c(O)c(-c2ccc(O)cc2)oc2cc(O)cc(O)c12` ?
15.6 µM

----------
# Tested on: LPS-induced NO production in macrophage RAW 264.7 cells (iNOS)
# procedure-summary: Inhibition of LPS-induced NO production in RAW 264.7 macrophages (Griess reaction, measure of iNOS activity);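 also: cells pretreated with compound for 2 h, then stimulated 24 h with LPS at 500 ng/ml, supernatant nitrite quantified by absorbance at 550 nm against a nitrite standard curve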
# Type: cell-based
# setup-conditions: Mus musculus; 50 µM compound; LPS-stimulated RAW264.7 cells; read-out: Inhibition of NO production at 50 µM (%)
So I've got a bunch of compounds here, and I need their inhibition at 50 µM values.
Numbers only here, please. The scale is %.

Bench note: what inhibition at 50 µM did O=C(C=Cc1ccc(O)c(O)c1)OC1C(O)CC(O)(C(=O)O)CC1O (stereo not drawn) show?
10.7

Proceed to CC1OC(OCC2OC(OCCc3ccccc3)C(O)C(O)C2O)C(O)C(O)C1O (stereo not drawn)
20.9

Moving on to the next compound: `O=Cc1ccc(O)c(O)c1`
22.2

Record: `COc1cc(C(=O)O)cc(OC)c1O`
14.1

Note, next up: `CC/C=C\CCO[C@@H]1O[C@H](CO)[C@@H](O)[C@H](O)[C@H]1O`
14.5

Next entry: COC(=O)C1(O)CC(O)C(OC(=O)C=Cc2ccc(O)c(O)c2)C(O)C1 (stereo not drawn)
25.2

Lookup `COc1ccc(C(=O)O)cc1O`
24

Follow-up item: `O=c1cc(-c2ccc(O)cc2)oc2cc(O)cc(O)c12`
98.9

Lookup `O=C(O)c1ccc(O)cc1`
17

// query: `COc1cc(C(=O)O)ccc1O`
11.4

Try this compound too: `O=C(O)/C=C/c1ccc(O)c(O)c1`
21.5

For `O=C(O)/C=C/c1ccc(O)cc1` then?
13.4

Again, but for `O=C(CO)c1ccc(O)cc1`
6.2

Proceed to `COc1cc([C@@H]2Oc3c(OC)cc(CCCO)cc3[C@H]2CO)cc(OC)c1O`
16.2

Repeat for the following compound: `CCCCOC(=O)[C@@]1(O)C[C@@H](O)[C@H](O)[C@H](OC(=O)/C=C/c2ccc(O)c(O)c2)C1`
53

Same question for `C[C@@H]1O[C@@H](OC[C@H]2O[C@@H](Oc3c(-c4ccc(O)cc4)oc4cc(O)cc(O)c4c3=O)[C@H](O)[C@@H](O)[C@H]2O)[C@H](O)[C@H](O)[C@H]1O` please.
3

Follow-up entry: `O=c1ccc2cc(O)c(O)cc2o1`
50.1

Again, but for `COc1cc(/C=C/C(=O)O)ccc1O`
10.6

Also check `O=C(/C=C/c1ccc(O)cc1)O[C@@H]1C[C@@](O)(C(=O)O)C[C@@H](O)[C@@H]1O`
19.7

# repeat for `C[C@@H]1CC[C@]2(C(=O)O)CC[C@]3(C)C(=CC[C@@H]4[C@@]5(C)C[C@@H](O)[C@@H](O)C(C)(C)[C@@H]5CC[C@]43C)[C@@H]2[C@]1(C)O`
8.9

Same question, `Oc1ccc(/C=C/c2cc(O)cc(O)c2)cc1` this time
77.7

And what about the compound `COc1cc([C@H]2Oc3c(OC)cc(CCCO)cc3[C@@H]2CO[C@@H]2O[C@H](CO)[C@@H](O)[C@H](O)[C@H]2O)ccc1O` ?
13.9

Same read-out for `COc1cc(/C=C/C(=O)O[C@@H]2C[C@@](O)(C(=O)O)C[C@@H](O)[C@@H]2O)ccc1O` ?
26.1

Moving on to the next compound: O=C1CC(c2ccc(O)c(O)c2)c2c(O)cc3c(c2O1)CC(O)C(c1ccc(O)c(O)c1)O3 (stereo not drawn)
18.3

Proceed to `COC(=O)[C@]1(O)C[C@@H](O)[C@@H](O)[C@H](OC(=O)/C=C/c2ccc(O)c(O)c2)C1`
1.8

Okay, and `OC[C@H]1O[C@@H](OCCc2ccccc2)[C@H](O)[C@@H](O)[C@@H]1O` ?
12.8

Likewise for `O=c1c(O[C@@H]2O[C@H](CO)[C@@H](O)[C@H](O)[C@H]2O)c(-c2ccc(O)cc2)oc2cc(O)cc(O)c12` ?
9

Please give the result for COc1cc(C2c3cc(O)c(OC)cc3CC(CO)C2COC2OC(C)C(O)C(O)C2O)ccc1O (stereo not drawn) too.
32.1

// same read-out, input: `O=c1c(O)c(-c2ccc(O)cc2)oc2cc(O)cc(O)c12`
93

Field entry: `OC[C@H]1O[C@@H](OC[C@@H](O)c2ccc(O)cc2)[C@H](O)[C@@H](O)[C@@H]1O`
15.9

Next record, please: `Oc1ccc(-c2ccc(O)c(O)c2)cc1O`
3

Quick one: `O=C1C[C@@H](c2ccc(O)cc2)Oc2cc(O)ccc21`
10.8

And what about the compound `O=C(/C=C/c1ccc(O)c(O)c1)O[C@@H]1C[C@@](O)(C(=O)O)C[C@@H](O)[C@@H]1O` ?
5.7
